# reported TGI; entries follow
# System: T-47D breast
# Method summary: NCI tumour cell line growth inhibition, 48 h
Write it as a number; the unit µM goes unstated.

Q: Need TGI of CCC1CN2CCc3cc(OC)c(OC)cc3C2CC1CC1c2cc(OC)c(OC)cc2CCN1C(=O)C(Cc1c[nH]c2ccccc12)NC(=O)OC(C)(C)C (stereo not given) , thanks.
A: 4.16

Q: Look at this molecule and give its reported TGI. `CC[n+]1c(/C=C/c2ccc(N3CCCC3)cc2)cccc1/C=C/c1ccc(N2CCCC2)cc1`
A: 0.931

Q: Returns the measured TGI for the input molecule. Input: `CC[C@H](C)[C@H](NC(=O)[C@H](Cc1ccc(O)cc1)NCC(F)(F)F)C(=O)OC(C)(C)C`
A: 18.3

Q: Quick check: TGI of `Cc1ccc2[nH]c3c(C)c4cc[n+](C)cc4c(C)c3c2c1` ?
A: 6.83

----------
# Tested on: UACC-62 melanoma
# Method summary: NCI tumour cell line growth inhibition, 48 h
Measured TGI accompanies every entry in the list below.

Sample records with TGI:
Compound	TGI
O=C(CSc1nc2ccc([N+](=O)[O-])cc2[nH]1)Nc1ccc([N+](=O)[O-])cc1	7.52 µM
Cc1ccc([N+](=O)[O-])cc1S(=O)(=O)Nc1ccc(C(=O)/C=C/c2ccccc2)cc1	28.1 µM
Nc1c2ccccc2nc2nccnc12	> 100 µM
Cc1cc2c(=O)cc(-c3ccc(Cl)cc3Cl)oc2c(C(=O)O)c1C	> 100 µM
C=CCC1=C2CCCCC2CCC1=O (stereo not given)	> 100 µM
O=C1/C(=C\c2ccc(Cl)cc2)CN(C(=O)c2ccccc2)C/C1=C\c1ccc(Cl)cc1	4.55 µM
CC1=CC=C2C(C)(C)CC[C@@H]3OC(=O)[C@H]1[C@]23C	> 100 µM
COc1ccc(/C=C2\N=C(N3CCOCC3)NC2=O)cc1	> 100 µM

Q: State the recorded TGI for this entry: `O=C(c1ccccc1)c1ccc(N2C(=O)/C(=C/c3cccc([N+](=O)[O-])c3)N=C2c2ccccc2)c(N2C(=O)/C(=C/c3cccc([N+](=O)[O-])c3)N=C2c2ccccc2)c1`
A: > 100 µM

Q: Requested field: TGI. Item: `COc1ccc(/C=C2\C(=O)Nc3ccccc32)cc1OC`
A: > 100 µM

----------
# Tested on: NCI-H226 lung
# Method summary: NCI tumour cell line growth inhibition, 48 h
Measure name: TGI (µM)
Give the number; µM is assumed, so skip it.

Smiles	Target or system	Unit	TGI
CC(C)[C@]12O[C@H]1[C@@H]1O[C@]13[C@]1(O[C@H]1C[C@H]1C4=C(CC[C@@]13C)C(=O)OC4)[C@@H]2OC(=O)OC(C)(C)C	NCI-H226 lung	µM	0.173

Q: I am curious: what TGI value has been reported for `O=C(NCCCNc1cc(-c2cn(-c3ccccc3)nc2-c2cccc(O)c2)ccn1)c1ccc(F)cc1` ?
A: 12.4

----------
# Tested on: LOX IMVI melanoma
# Method summary: NCI tumour cell line growth inhibition, 48 h; in the data active = GI50 below about 0.43 µM; inactive = the rest
Please answer using one outcome listed in active, inactive

Example cases with answers are listed next.
Compound	Cat
CCOC(=O)c1c2c(n(Cc3ccccc3)c1C)-c1nc[nH]c1C(=O)C2=O	inactive
Fc1ccc(-c2nn3c(COc4ccccc4Cl)nnc3s2)cc1Oc1ccccc1	inactive
CN1CCN(C(=O)OCc2nc3c(N4CCOCC4)nc(-c4ccccc4)nc3n2C)CC1	active
COc1ccc2c(c1)OC(N)=C(C#N)C2c1ccc(F)c(F)c1 (stereo not given)	inactive
COc1cc2c3c(n(CCCNC(C)(C)CO)c(=O)c2cc1OC)-c1cc2c(cc1C3=O)OCO2	active
COc1ccc(/C=C/C(=O)c2ccc(B(O)O)cc2)cc1O	inactive
Fc1cc(C2=Nn3c(nnc3-c3cc(F)c(Cl)cc3Cl)SC2)c(Cl)cc1Cl	inactive
Cc1cc(S(=O)(=O)Nc2n[nH]c(-c3ccc(Cl)cc3)c2C#N)c(S)cc1Cl	inactive

Q: Check the results log: what was the call for `Clc1ccc(Nc2ncnc3ccccc23)cc1` ?
A: inactive

Q: Each compound tested received a call. Report the one for `O=C1NC(=N[C@@H]2C[C@H]2c2ccccc2)S/C1=C\c1ccc2ncccc2c1` .
A: inactive

Q: Field: outcome | Entry: `O=C(CSc1nc2ccc([N+](=O)[O-])cc2[nH]1)Nc1ccc([N+](=O)[O-])cc1`
A: inactive

Q: I'd appreciate the recorded outcome for `NS(=O)(=O)c1ccc(N=Nc2c(O)[nH]c3cccc(CCc4ccncc4)c23)cc1` from this test.
A: inactive

Q: // param item: `O=C(NC(=S)Nc1ccc(-c2nc3ccccc3[nH]2)cc1)c1ccc2ccccc2c1` ; yields the recorded call
A: inactive

Q: Test call for this compound, please: Nc1cc2c(c3ccccc13)C(CCl)CN2C(=O)c1cc2cc(NC(=O)c3cc4ccccc4o3)ccc2[nH]1 (stereo not given)
A: active

Q: // param item: `COC(=O)Nc1nc2ccc(C(=O)C3CC3)cc2[nH]1` ; yields the recorded call
A: inactive

----------
TGI by entry:
# Test system: HS 578T breast
# Method summary: NCI tumour cell line growth inhibition, 48 h
Field: numeric (µM). Do not append units.

Molecule	TGI / µM
CN(CCNc1ccc(C(=N)N)cc1)c1ccc(C(=N)N)cc1	51.9

Q: Request the reported TGI associated with CC1(C)CCCCC1/C=C/C(CC(O)(C(F)(F)F)C(F)(F)F)=N\Nc1ccc([N+](=O)[O-])cc1[N+](=O)[O-] (stereo not given)
A: 40.6

----------
# Tested on: OVCAR-3 ovarian
# Method summary: NCI tumour cell line growth inhibition, 48 h
# cutoff 9 µM applies to TGI; >= gives yes (1), < gives no (0)

A selection of reference data follows.
Molecule	Cat
Cc1ccc(C)n1-n1c(Cc2ccc(Cl)cc2)n[nH]c1=O	yes (1)
CCC1CN2CCc3cc(OC)c(OC)cc3C2CC1CC1c2cc(OC)c(OC)cc2CCN1C(=O)C(Cc1c[nH]c2ccccc12)NC(=O)OC(C)(C)C (stereo unspecified)	no (0)
O=C([CH-]C(=O)c1ccccc1)c1ccccc1.O=C([CH-]C(=O)c1ccccc1)c1ccccc1.[CH2-]CCC.[CH2-]CCC.[Sn+4]	no (0)

Q: Dear colleague, could you confirm whether `CSc1nc(SC)c2c(C)cn(Cc3ccccc3)c2n1` has TGI at or above 9 µM?
A: yes (1)

Q: State whether the measured TGI reaches 9 µM, counting equality as reaching it, for `Cc1ccc(C2=NN=C3C(c4ccccc4)=Nc4ccccc4N3C2)cc1`
A: yes (1)

Q: Is the recorded value of TGI equal to or greater than 9 µM for this molecule? CCCCN(CCCC)C(=O)C(=O)C(C(=O)C(=O)OC)c1nc2ccccc2o1 (stereo unspecified)
A: yes (1)

Q: Check this molecule for TGI at or above 9 µM: `O=C(O)c1ccc(NCn2nc(-c3ccccc3O)oc2=S)cc1O`
A: yes (1)

Q: In plain terms: is recorded TGI at least 9 µM for `COC(=O)c1oc([N+](=O)[O-])c(-c2ccccc2)c1-c1ccccc1` ?
A: yes (1)

Q: Entry `O=C1CNC(=O)N1` : is its TGI no less than 9 µM?
A: yes (1)

Q: I'd appreciate it if you could say whether `CSc1nc(SC)c2cnn(-c3ccnc4cc(Cl)ccc34)c2n1` has TGI at least equal to 9 µM.
A: yes (1)

Q: Please indicate if the recorded TGI for `C/C(CC(O)(C(F)(F)Cl)C(F)(F)Cl)=N\Nc1ccccc1` meets or exceeds 9 µM.
A: yes (1)

Q: Form field: TGI at least 9 µM? Entry: `COC(=O)Nc1nc2ccc(C(=O)C3CC3)cc2[nH]1`
A: no (0)

Q: Would you say `CN(CC(=O)O)S(=O)(=O)c1ccc(Cl)cc1` shows TGI at minimum 9 µM?
A: yes (1)

Q: Item `COc1cc(CN(C)N2C(=O)c3cccc4cc([N+](=O)[O-])cc(c34)C2=O)cc(OC)c1OC` with TGI of 9 µM or above?
A: yes (1)

----------
# System: UACC-62 melanoma
# Method summary: NCI tumour cell line growth inhibition, 48 h
Measure name: TGI (µM)
Entry rule: numbers only, all in µM.

Compound	Measure name	Unit	Assay result
CC(=O)OCc1cc(OC(C)=O)c2cc3c(OC(C)=O)cccc3c(OC(C)=O)c2c1	TGI	µM	38.7

Shifting focus to the compound that follows.
Q: Suppose we examine the compound Nc1n[nH]c2ccc([C@H]3[C@@H]4C5CCC(C5)[C@@H]4c4c(ccc5[nH]ncc45)N3S(=O)(=O)C3CC3)cc12 (stereo not given in full) ; what TGI value has been reported?
A: 5.54

----------
# System: UO-31 renal
# Method summary: NCI tumour cell line growth inhibition, 48 h
// reported TGI for each item listed

Consider the worked cases shown below.
Compound	Assay result
CCC1CN2CCc3cc(OC)c(OC)cc3C2CC1CC1c2cc(OC)c(OC)cc2CCN1C(=O)C(Cc1c[nH]c2ccccc12)NC(=O)OC(C)(C)C (centres undefined)	7.77 µM
C=CCC1=C2CCCCC2CCC1=O (centres undefined)	> 100 µM
CC(=O)Nc1ccc(S(=O)(=O)N/N=C/c2cc(I)cc([N+](=O)[O-])c2O)cc1	> 100 µM
CC1(C)OC[C@@H]([C@H](C=O)OCc2ccccc2)O1	> 100 µM
COc1ccc(-c2nc(SCC(=O)N/N=C/c3ccc([N+](=O)[O-])cc3)[nH]c2-c2ccc(OC)cc2)cc1	> 100 µM

Next item in the queue.
Q: # TGI lookup, item CNC(=O)N(CCCC(NC(C)=O)C(=O)NCc1ccccc1)Cc1ccccc1 (centres undefined)
A: > 100 µM
